# subject-of-test: T1, RSV postfusion F (postF), subtype A (respiratory syncytial virus subtype A, UniProt P03420 26-513)
# T1 construct: also called Postfusion subtype A; F deltaFP
# assay: BLI
value-type: binding result

Which binding result value is on record for ADI-24835 (antibody, V domains shown, full-length IgG) VH: EVQLVESGGGLVKPGGSLRLSCAASGFPFSTSSMNWVRQAPGKGLEWVSSISSSSSYIDYADSVKGRFTISRDNAKNSLYLQMNSLRAGDTAVYYCARVPRSDWYYFDYWGQGTLVTVSS VL: QSVVTQPPSVSGAPGQRVTISCTGSSSNIGAGYDVHWYQQLPGTAPKFLIYDNKYRPSGVPDRFSGSKSGTSASLAITGLQAEDEADYYCQSYDSSLSGYVFGTGTKLTVL ? no binding

Would you kindly share the measured binding result for ADI-19509 (antibody, V domains shown, full-length IgG) VH: EVQLVESGGGLVKPGGSLRLSCAASGFTFSSYSMNWVRQAPGKGLEWVSSISSSSSYIYYADSVKGRFTISRDNAKNSLYLQMNSLRAEDTAVYYCASSRRSLTGDRGGWFDPWGQGTLVTVSS VL: QSVLTQPPSVSGAPGQRVTISCTGSSSNIGAGYDVHWYQQLPGTAPKLLIYGNSNRPSGVPDRFSGSKSGTSASLAITGLQAEDEADYYCQSYDSSLSGWVFGGGTKLTVL ? no binding
